target: human GLP-1 receptor (human, UniProt P43220 24-463); assay: cell-based or functional assay
Bridge positions count the residues as written; N and C are the ends. Square brackets hold non-standard residues; d marks the D form. Ends that are not written are not given here. C20L5A = not defined here; L5A = not defined here; Aib = CC(C)(N)C(=O)O
Below, each of the binders is paired with its reported EC50 [nM] of receptor-mediated cAMP synthesis value.
Answer in nM, number only, no unit symbol.

Y[Aib]EGTFTSDYSIYCDKQAA[Aib]CFVNWLIAGGPSSGAPPPS-NH2 (linker 14-21 via L5A; not fully specified; reading uncertain) [27I, C(14-21)-L5A]	0.04
Y[Aib]EGTFISDVSIYCDKQAA[Aib]CFVNWLIAGGPSSGAPPPS-NH2 (linker 14-21 via L5A; not fully specified; reading uncertain) [7I, 10V, 27I, C(14-21) - L5A]	83.9
Y[Aib]EGTFTSDYSIYCDKQAA[Aib]CFVNWLIAGGPSSGAPPPS-NH2 (linker 14-21 via C20L5A; not fully specified; reading uncertain) [mCMV266 (27I, C(14-21)-C20L5A)]	0.05

Per the record, Y[Aib]EGTFTSDYSIYKDKQAA[Aib]KFVNWLLAGGPSSGAPPPS-NH2 (bridge 14-21; not fully specified (bridges); also: K4 staple carries PEG-fatty acid) [mCMD307 (2050-K4)] has EC50 [nM] of receptor-mediated cAMP synthesis of 0.03
